Molecular target: T1, Macaca fascicularis CEACAM6-Domain 1-His (expressed in E. coli) (Macaca fascicularis)
T1 construct: entry includes the His tag; also called TPP-2453; Recombinant single domain 1 of Macaca fascicularis CEACAM6
T1 chain: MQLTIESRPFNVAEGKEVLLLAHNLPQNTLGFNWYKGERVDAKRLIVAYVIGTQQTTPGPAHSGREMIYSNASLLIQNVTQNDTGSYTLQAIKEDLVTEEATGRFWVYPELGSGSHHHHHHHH
Assay: SPR, antibody captured, antigen as analyte
Protocol: Surface plasmon resonance (SPR) experiments for quantitative binding analyses were performed either using a Biacore T100, Biacore T200 or a Biacore 4000 instrument (GE Healthcare Biacore, Inc.) equipped with Series S Sensor Chips CM5 (GE Healthcare Biacore, Inc.). Binding assays were carried out at 25° C. with assay buffer HBS-EP+(10 mM HEPES pH 7.4, 150 mM NaCl, 3 mM EDTA, 0.05% Surfactant P20). […]
Exercise: for every item that follows, state its recorded Kd.
One number for each entry, in nM.

binder	Kd [nM]
TPP-3308 (antibody, human IgG2, kappa, V domains shown, human IgG2 chimera; also called TPP-2971X1-hIgG2Kappa; hIgG2 chimera of TPP-2971) VH: QVTLKESGPGILQPSQTLSLTCSFSGFSLSTYGIGVGWIRQPSGKDLEWLAHIWWNDNKYYNTALKSRLTISKDTSNNQVFLKIASVDTADTATYYCARISLPYFDYWGQGTTLTVSS VL: DIVMTQSQKFMSTSVGDRVSITCKASQNVGTAVAWYQQKPGQSPKLLIYSASNRYTGVPDRFTGSGSGTDFTLTISNMQSEDLADYFCQQYSSYPLTFGAGTKLELKR	5.4

Input: Would you mind telling me what Kd value was observed for TPP-3187 (antibody, mouse IgG1, V domains shown, murine hybridoma antibody, mouse IgG1; also called 792.15C4F4) VH: QVTLKESGPGILQPSQTLSLTCSFSGFSLTTYGIGVGWIRQPSGKGLEWLAHIWWNDNKYYNTALKSRLTISKDTSNNQVFLKIASVDTADTATYYCARISLPYFDYWGQGTTLTVSS VL: DIVMTQSQKFMSTSVGDRVSITCKASQNVGTAVAWYQQKPGQSPKLLIYSASNRYTGVPDRFTGSGSGTDFTLTISNMQSEDLADYFCQQYNNYPLTFGAGTKLELK ?
Output: 6.9
